Form field: binding signal (one value per entry).
Target: TDP-43 (Homo sapiens, UniProt Q13148 1-414)
Sequence (Q13148 whole entry): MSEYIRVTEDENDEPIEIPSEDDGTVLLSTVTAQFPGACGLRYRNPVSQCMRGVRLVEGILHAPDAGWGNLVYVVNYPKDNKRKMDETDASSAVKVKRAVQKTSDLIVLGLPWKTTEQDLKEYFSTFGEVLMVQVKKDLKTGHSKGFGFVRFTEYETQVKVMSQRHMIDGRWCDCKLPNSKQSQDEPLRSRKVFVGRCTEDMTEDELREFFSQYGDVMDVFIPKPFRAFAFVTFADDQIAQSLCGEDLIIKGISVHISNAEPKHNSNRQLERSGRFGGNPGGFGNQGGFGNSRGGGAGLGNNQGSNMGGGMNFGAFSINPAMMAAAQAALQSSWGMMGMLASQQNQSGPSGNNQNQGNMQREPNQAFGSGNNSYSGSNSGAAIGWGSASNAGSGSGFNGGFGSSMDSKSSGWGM
Assay: RNA Bind-n-Seq with designed 260-mer pool; 25 mM Tris-HCl, 150 mM KCl, 3 mM MgCl2, BSA (printed 500 mg/mL), 20 units/mL SUPERase IN; pH not stated; 500 nM RNA pool, 1 h, 4 C; TDP-43 5, 50, 500 nM; high values mean tight binding
Conditions: protein: recombinant; tags: SBP (GST cleaved off with PreScission; pGEX-GST-SBP)
Whole data set: some 9,900 sequences, median “r (bound/input frequency ratio)” near 0.7, cut for the highest 2% near 6.5. This excerpt belongs to a sample that is enriched for the highest values.
quantity-name: binding signal

binder="ENSMUSG00000022095.129|Fam160b2|254:258 (ssRNA) RNA: GGGAGUUCUACAGUCCGACGAUCGCUUCGAUAUCCGCAUGCUACAGCUGGUUCCUCUCUGGCGCCUUCUGAACCCGUCUCAGCAAGUCCGAAACACCUGGGCAGAGAGGUCAUUGACCAGGGAUGGGGGCCCUUGCCCUCUGAAUCCUGCCCAGUGCCCAGGGGUCCAGGUGGAAUGUGGUCCUGGGGACUAUAGGAACUCAAGGUACAGAUGGGACAGGGCACCCCAACUCCAAACCCCAGAAGCCUAGUGAGGCUAGGCCGAGACACAAGCAGAUAGCUCUGGCAUUGUUCUUCCAUACUCCUCUUGCGGUCGCACUAGUGUGGAAUUCUCGGGUGUCAAGG" measurement="0.357 R (bound/input frequency ratio)"
binder="ENSMUSG00000061578.211|Ksr2 (ssRNA) RNA: GGGAGUUCUACAGUCCGACGAUCGCUUCGAUAUCCGCAUGCUAUGACACAAGAGGCAAAGCUGUCCCUAAGCAGAGAAUUAGCAGGGUUAGCCAGACAGCAAAAUCCAUGUAAACAUACAAAACCACCCCCCCUUUUUGAGUGGCCCUAUUGGAUGUACACACUAGGACCAAGCACGGGUCCAAAGCAGGAAGACUGAUUGACAGUAGUCACACUUCUAGAGAGAUGUACCCCAUGACACUUUCAAGUCUUUUCAGAACCUUCUCACCCCUUUGCAAAGCUCUUGCCGUCUGCACCCGGGACCCUCUUGCGGUCGCACUAGUGUGGAAUUCUCGGGUGUCAAGG" measurement="0.667 R (bound/input frequency ratio)"
